z-score reference
assay: ATP-based viability of Huh7 replicon cells – cell-based, CellTiter-Glo luminescence, basal, 48 h, cytotoxicity control for HCV replication inhibitor project, primary screen (AID 1143); conditions: higher = more signal, called active from +8 up or from −8 down;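 also: Huh7 hepatoma cells carrying a hepatitis C replication reporter with no stimulus; test concentration not given here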
Reported Property: z-score

>>> recorded_result("C#CCN([C@@H](Cc1ccccc1)C(=O)OC)[C@@H](/C=C/C1CC1)[C@H](O)Cc1ccccc1")
-3.22
>>> recorded_result("NCCCCCCNC(=O)[C@@H]1C[C@@H]2C(=O)N[C@@H](CCCCN)C(=O)N2[C@@H]1c1ccc(O)cc1")
-2.28
>>> recorded_result("O=C(C1N=C(c2ccc(OCCCO)cc2)N(c2ccccc2)O1)N1CCCCC1 (stereo unspecified)")
-0.163
>>> recorded_result("CCOC(=O)C[C@H]1[C@H](OC(=O)c2cc3ccccc3oc2=O)[C@@H](NC(=O)CC(C)C)c2cc(OCCCO)ccc2N1C(=O)c1ccc2ccccc2n1")
0.152
>>> recorded_result("CO[C@H]1O[C@H](CO)[C@@H](OC(=O)Nc2ccc3c(c2)OCO3)[C@H](OC(=O)Nc2ccc3c(c2)OCO3)[C@@H]1OC(=O)Nc1ccc2c(c1)OCO2")
-2.3
>>> recorded_result("COC(=O)[C@@]1(Cc2ccc(OC)cc2)[C@H]2c3cc(C(=O)N4CCCC4)n(CCc4c[nH]c5ccc(O)cc45)c3C[C@H]2CN1C(=O)c1ccccc1")
-0.759
>>> recorded_result("COc1ccc([Si](C)(C)[C@@H]2[C@@H](CCO)O[C@]3(C(=O)N(Cc4ccccc4)c4ccc(N5CCOC5=O)cc43)[C@H]2C)cc1")
-5.88
>>> recorded_result("Cc1cc(C)c(C(O)C2C=CC3C(=O)N(c4ccccc4)C(=O)C3N2Nc2ccccc2F)c(C)c1 (stereo unspecified)")
0.224
>>> recorded_result("COc1cc(NN2C(C(O)c3ccco3)C=CC3C(=O)N(C)C(=O)C32)cc(OC)c1OC (stereo unspecified)")
1.06
>>> recorded_result("COC(=O)c1c(CC[C@@H](CO)NC(=O)N[C@@H](C)Cn2cc(-c3ccccn3)nn2)oc(C(C)=O)c1C(=O)OC")
-2.77
>>> recorded_result("CCC#CCN(Cc1ccccc1Br)[C@H](/C=C/C1CC1)[C@@H](O)Cc1ccccc1")
-2.43
